# credit: PubChem BioAssay

In this section, each of the compounds is paired with its reported z-score.
# procedure-summary: A549 lung cancer cell viability effects, profiling panel, resazurin fluorescence, 24 h, PK04 Diversity Set (AID 1171); also: test concentration not given here
# particulars: higher = more signal, called active from +8 up or from −8 down
Calls of active or inactive are those of the source.

1. CCCCCCc1nc(-c2cc(C)c(OC)c(C)c2)cc2c1[Si](C(C)C)(C(C)C)OC2 ... 1.1 (inactive)
2. COCCOC(=O)N1C(=O)[C@@]2(c3cc(C#CC4(O)CCCCCC4)ccc31)[C@H](c1ccccc1OCCO)N1[C@H](c3ccccc3)[C@H](c3ccccc3)OC(=O)[C@H]1[C@@H]2C(=O)N1CCN(c2ncccn2)CC1 ... -0.461 (inactive)
3. C=C(CCCC)/C(=C/C[C@H](OC(=O)c1ccncc1)c1ccccc1OCCO)c1cnc2ccccc2c1 ... 0.89 (inactive)
4. CC(C)N1C(=O)c2ccccc2[C@](C)(C(=O)NCCN2CCOCC2)[C@@H]1c1ccc(CO)cc1 ... 0.0569 (inactive)
5. CN(C)C(=O)[C@]1(Cc2ccccc2N=[N+]=[N-])N=C(c2ccc(OCCCO)cc2)O[C@@H]1c1ccccc1N=[N+]=[N-] ... -2.16 (inactive)

Could you now consider this next compound?
Which z-score value is on record for CC(C)C(=C=CC[C@H](O)c1ccc(OCCO)cc1)CCO ?
1.05 (inactive)
